Source listed as patent US6800770B2.

Tested On: CB1 (Rattus norvegicus, UniProt P20272)
Construct: from whole rat brain membranes
Sequence (P20272 whole entry): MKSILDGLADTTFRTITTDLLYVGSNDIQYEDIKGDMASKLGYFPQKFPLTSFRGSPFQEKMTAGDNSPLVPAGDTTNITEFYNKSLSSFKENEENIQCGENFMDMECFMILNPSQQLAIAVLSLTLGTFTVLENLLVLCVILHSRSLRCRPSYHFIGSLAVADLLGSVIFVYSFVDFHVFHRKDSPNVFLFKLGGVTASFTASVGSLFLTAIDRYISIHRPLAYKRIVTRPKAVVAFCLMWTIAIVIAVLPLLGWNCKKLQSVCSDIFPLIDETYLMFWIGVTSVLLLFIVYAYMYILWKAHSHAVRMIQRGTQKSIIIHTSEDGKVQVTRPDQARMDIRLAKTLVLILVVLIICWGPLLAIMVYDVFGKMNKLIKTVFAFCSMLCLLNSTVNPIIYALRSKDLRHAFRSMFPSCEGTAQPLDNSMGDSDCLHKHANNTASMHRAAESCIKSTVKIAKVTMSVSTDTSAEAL
Run Parameters: displacement of [3H]CP55940, whole rat brain membranes; means ± S.D., n=3; read-out: CB1 affinity (Ki)
Measured Metric: Ki (nM)
Please respond with the number in nM and leave the unit unwritten.

Query: Report measured Ki; entry is "CCCCC/C=C\C/C=C\C/C=C\C/C=C\CCCC(=O)N(Cc1ccc(O)c(Cl)c1)Cc1ccc(O)c(Cl)c1"
Response: 1290
